Organism: Homo sapiens
ASSAY_OVERVIEW: Ratio of kobs/[l] for human leukocyte elastase and kobs/[l] for chymotrypsin
Rule: Ratio under 8 gives FALSE, otherwise TRUE.

SMILES_REPRESENTATION: CS(=O)(=O)ON1C(=O)c2ccc(NC(=O)c3cccc4ccccc34)cc2C1=O
ASSIGNED_CATEGORY: FALSE

SMILES_REPRESENTATION: CCS(=O)(=O)ON1C(=O)c2ccc(NC(=O)CCC(=O)OC)cc2C1=O
ASSIGNED_CATEGORY: FALSE

SMILES_REPRESENTATION: CCS(=O)(=O)ON1C(=O)c2ccc(NC(=O)CCCC(=O)OC)cc2C1=O
ASSIGNED_CATEGORY: TRUE

SMILES_REPRESENTATION: CS(=O)(=O)ON1C(=O)c2ccc(NC(=O)c3ccccc3)cc2C1=O
ASSIGNED_CATEGORY: FALSE

SMILES_REPRESENTATION: CS(=O)(=O)ON1C(=O)c2ccc(NC(=O)/C=C/c3ccccc3)cc2C1=O
ASSIGNED_CATEGORY: TRUE

SMILES_REPRESENTATION: CS(=O)(=O)ON1C(=O)c2ccc(NC(=O)CCc3ccccc3)cc2C1=O
ASSIGNED_CATEGORY: FALSE

SMILES_REPRESENTATION: CS(=O)(=O)ON1C(=O)c2ccc(N)cc2C1=O
ASSIGNED_CATEGORY: TRUE

SMILES_REPRESENTATION: Cc1ccc(S(=O)(=O)N[C@@H](Cc2ccccc2)C(=O)Nc2ccc3c(c2)C(=O)N(OS(C)(=O)=O)C3=O)cc1
ASSIGNED_CATEGORY: TRUE

SMILES_REPRESENTATION: CCS(=O)(=O)ON1C(=O)c2ccc(NC(=O)C(=O)OC)cc2C1=O
ASSIGNED_CATEGORY: TRUE

SMILES_REPRESENTATION: CCS(=O)(=O)ON1C(=O)c2ccc(N)cc2C1=O
ASSIGNED_CATEGORY: FALSE

SMILES_REPRESENTATION: COC(=O)CCCC(=O)Nc1ccc2c(c1)C(=O)N(OS(C)(=O)=O)C2=O
ASSIGNED_CATEGORY: TRUE

SMILES_REPRESENTATION: COC(=O)C(=O)Nc1ccc2c(c1)C(=O)N(OS(C)(=O)=O)C2=O
ASSIGNED_CATEGORY: FALSE

Recorded values, source ChEMBL document CHEMBL1133055.
